IC50 by entry:
- target system: DNMT1 (Homo sapiens)
- Sequence (P26358 whole entry, looked up): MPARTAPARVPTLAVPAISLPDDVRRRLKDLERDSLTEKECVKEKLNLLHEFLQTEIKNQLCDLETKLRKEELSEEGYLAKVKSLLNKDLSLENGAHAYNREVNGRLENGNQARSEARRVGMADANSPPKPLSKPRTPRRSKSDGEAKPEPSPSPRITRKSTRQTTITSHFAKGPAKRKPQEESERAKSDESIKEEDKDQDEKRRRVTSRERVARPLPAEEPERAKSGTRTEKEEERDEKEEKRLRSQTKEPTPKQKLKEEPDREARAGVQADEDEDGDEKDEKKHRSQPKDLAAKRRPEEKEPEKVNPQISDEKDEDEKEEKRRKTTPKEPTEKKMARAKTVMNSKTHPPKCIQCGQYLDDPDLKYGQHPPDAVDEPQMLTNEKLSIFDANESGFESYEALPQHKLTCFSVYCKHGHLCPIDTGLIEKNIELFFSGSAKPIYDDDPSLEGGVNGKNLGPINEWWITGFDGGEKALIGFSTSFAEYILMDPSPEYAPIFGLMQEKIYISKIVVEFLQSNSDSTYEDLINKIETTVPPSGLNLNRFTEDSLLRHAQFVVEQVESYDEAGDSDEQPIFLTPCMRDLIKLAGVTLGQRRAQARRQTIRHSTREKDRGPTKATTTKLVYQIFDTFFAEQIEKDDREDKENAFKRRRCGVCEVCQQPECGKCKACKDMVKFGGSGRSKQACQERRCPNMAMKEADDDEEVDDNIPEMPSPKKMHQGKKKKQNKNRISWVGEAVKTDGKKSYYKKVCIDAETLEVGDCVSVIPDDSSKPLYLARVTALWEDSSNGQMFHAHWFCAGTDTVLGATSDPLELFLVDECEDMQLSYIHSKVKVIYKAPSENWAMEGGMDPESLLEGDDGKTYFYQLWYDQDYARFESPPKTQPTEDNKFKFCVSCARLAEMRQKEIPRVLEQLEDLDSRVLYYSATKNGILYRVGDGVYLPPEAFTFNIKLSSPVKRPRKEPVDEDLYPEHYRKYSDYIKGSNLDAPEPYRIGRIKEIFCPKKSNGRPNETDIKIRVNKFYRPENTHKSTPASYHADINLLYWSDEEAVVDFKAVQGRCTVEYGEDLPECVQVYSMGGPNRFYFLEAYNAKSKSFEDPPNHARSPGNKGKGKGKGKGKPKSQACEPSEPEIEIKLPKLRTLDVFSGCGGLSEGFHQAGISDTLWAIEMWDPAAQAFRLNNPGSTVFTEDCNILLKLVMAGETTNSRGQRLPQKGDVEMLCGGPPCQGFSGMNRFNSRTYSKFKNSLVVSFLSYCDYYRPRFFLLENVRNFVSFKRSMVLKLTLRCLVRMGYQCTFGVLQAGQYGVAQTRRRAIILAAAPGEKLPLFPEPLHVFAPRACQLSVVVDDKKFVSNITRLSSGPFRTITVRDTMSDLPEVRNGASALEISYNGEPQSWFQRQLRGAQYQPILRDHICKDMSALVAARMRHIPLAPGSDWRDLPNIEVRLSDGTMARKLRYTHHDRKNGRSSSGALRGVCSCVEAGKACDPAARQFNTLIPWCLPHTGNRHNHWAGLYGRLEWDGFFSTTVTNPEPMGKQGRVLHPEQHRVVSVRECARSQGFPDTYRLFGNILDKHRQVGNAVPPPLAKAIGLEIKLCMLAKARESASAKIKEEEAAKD
- test description: DNMT1 biochemical activity, breaklight assay and/or SPA assay
- test settings: binned activity in either the breaklight or the SPA assay; read-out: DNMT1 BioChemical (pIC50 category) (converted)

Use the examples below as a reference point.
CCc1c(C#N)c(SCc2ccc(CNC(C)=O)cc2)nc(N2CCC(NC(C)=O)CC2)c1C#N :: 316 to 1000 nM
CCc1c(C#N)c(SC(C(N)=O)c2ccccc2)nc(N2CCCN(CC(=O)OC)CC2)c1C#N (stereo not shown) :: 1000 to 31600 nM
CCc1c(C#N)c(SCc2ccc3c(c2)C(=O)C(=O)N3)nc(N2CCCN(C)CC2)c1C#N :: 316 to 1000 nM

Name the recorded IC50 for N#Cc1c(SC(C(N)=O)c2ccncc2)nc(N2CCCNCC2)c(C#N)c1C1CC1 (stereo not shown) .
316 to 1000 nM

Can you look up the measured IC50 of N#Cc1c(SC(C(N)=O)c2ccccc2)nc(N2CCCC(NCC(=O)O)C2)c(C#N)c1C1CC1 (stereo not shown) for me?
316 to 1000 nM

# query: IC50 of entry CCc1c(C#N)c(SC(C(N)=O)c2ccccc2)nc(N2CCC[C@@H](CN)C2)c1C#N (stereo partly shown)
< 316 nM

So what's the measured IC50 for this one? CCc1c(C#N)c(SC(C(N)=O)c2c(F)cccc2F)nc(N2CC[C@H](O)C2)c1C#N (stereo partly shown)
316 to 1000 nM

Requested field: IC50. Item: CCc1c(Cl)c(SC(C(N)=O)c2ccccc2)nc(N2CCCN(C)CC2)c1Cl (stereo not shown)
316 to 1000 nM

Fill in: IC50 of CCc1c(C#N)c(SC(C(N)=O)c2ccccc2)nc(N(C)CCC(N)=O)c1C#N (stereo not shown) is ___
316 to 1000 nM

Look up IC50: CCc1c(C#N)c(SC(C(N)=O)c2ccccc2)nc(N2CC3CC2CN3C)c1C#N (stereo not shown)
316 to 1000 nM

* * *

- System: erythroid progenitor cells (EPCs)
- test description: Fetal hemoglobin (HbF) ELISA in day 7 erythroid progenitor cells;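 also: for fetal hemoglobin induction normalized to vehicle-treated cells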
- Type: cell-based, human
- test settings: Homo sapiens, Erythroid progenitor cell, HbF ELISA, day 7 EPCs, 5 days; read-out: EPC ELISA (pEC50 category) (converted)
Structures can show the parent of a compound that is named as a salt.
readout: EC50

Consider the worked cases shown below.
CN(CCCN)c1nc(SC(C(N)=O)c2ccccc2)c(C#N)c(C2CC2)c1C#N (stereo not drawn) [Example 391, Hydrochloride] :: 1 to 31.6 µM
CCc1c(C#N)c(S[C@@H](C(N)=O)c2ccccc2)nc(N2CC[C@H](OP(=O)(O)O)C2)c1C#N :: > 31.6 µM
CCc1c(C#N)c(SC(C(N)=O)c2ccccc2)nc(N2CCC(N(C)CC(C)(C)O)CC2)c1C#N (stereo not drawn) :: < 0.316 µM

Given the compound CCc1c(C#N)c(SC(C(N)=O)c2ccccc2)nc(N(C)CC(=O)N2CCOCC2)c1C#N (stereo not drawn) , what is its reported EC50?
< 0.316 µM

Any idea what its EC50 is? The compound is CCc1c(C#N)c(SCc2ccc(/C=C/C(=O)O)cc2)nc(N(C)C)c1C#N [Example 102, Trifluoroacetic Acid Salt]
> 31.6 µM

# lookup: EC50 of CCc1c(C#N)c(SC(C(N)=O)c2ccc(CC(N)=O)cc2)nc(N(C)C)c1C#N (stereo not drawn)
1 to 31.6 µM
